test system: rodent lifetime carcinogenesis bioassay, tumor incidence TD50; assay: carcinogenic potency in animals, long-term in vivo studies, CPDB compilation (AID 1745844); conditions: rat; strain MRC-Wistar; males; in drinking water; site: forestomach; lesion: squamous-cell papilloma; dosed 52 weeks; study length 110 weeks

>  <Compound string>
O=NN1CC(=O)NC1=O

>  <TD50 (mg/kg/day)>
27.8

$$$$

====

system: rodent lifetime carcinogenesis bioassay, tumor incidence TD50; assay: carcinogenic potency in animals, long-term in vivo studies, CPDB compilation (AID 1745844); details: rat; strain Osborne-Mendel; females; in feed; site: liver; lesion: hepatocellular adenoma + hepatocellular carcinoma + neoplastic nodule; dosed 90 weeks; study length 110 weeks
Reported endpoint: TD50

>  <Compound string>
ClC1=C(Cl)[C@]2(Cl)[C@@H]3[C@@H]4C[C@@H]([C@H]5O[C@@H]45)[C@@H]3[C@@]1(Cl)C2(Cl)Cl

>  <Reported value>
38.4 mg/kg/day

$$$$

====

test system: rodent lifetime carcinogenesis bioassay, tumor incidence TD50; assay: carcinogenic potency in animals, long-term in vivo studies, CPDB compilation (AID 1745844); details: rat; strain Fischer 344; males; by gavage; site: any site (literature study); lesion: several types; types named in the paper; dosed 101 weeks; study length 104 weeks
Reported endpoint: TD50 (mg/kg/day)

>  <Compound string>
O=c1ccc2ccccc2o1

>  <Unit spec>
mg/kg/day

>  <Reported value>
12

$$$$

====

system: rodent lifetime carcinogenesis bioassay, tumor incidence TD50; test: carcinogenic potency in animals, long-term in vivo studies, CPDB compilation (AID 1745844); details: rat; strain Sprague-Dawley; females; i.p.; site: liver; lesion: hepatocellular adenoma + hepatocellular carcinoma + neoplastic nodule; dosed 36 weeks; study length 80 weeks

>  <Compound string>
CS(=O)(=O)OCCCNCCCOS(C)(=O)=O

>  <Unit spec>
mg/kg/day

>  <TD50>
5.01

$$$$

====

tested on: rodent lifetime carcinogenesis bioassay, tumor incidence TD50; assay: carcinogenic potency in animals, long-term in vivo studies, CPDB compilation (AID 1745844); details: rat; strain F344/DuCrj; males; in feed; site: liver; lesion: hepatocellular adenoma; dosed 112 weeks; study length 112 weeks

>  <Compound string>
Cc1nc(N)cc2[nH]c3ccccc3c12

>  <TD50>
10.7 mg/kg/day

$$$$

====

system: rodent lifetime carcinogenesis bioassay, tumor incidence TD50; assay: carcinogenic potency in animals, long-term in vivo studies, CPDB compilation (AID 1745844); conditions: mouse; strain Swiss; females; i.p.; site: uterus; lesion: sarcoma; dosed 26 weeks; study length 76 weeks
Reported endpoint: TD50 (mg/kg/day)

>  <Compound string>
CNNCc1ccc(C(=O)NC(C)C)cc1

>  <Reported endpoint>
TD50

>  <Reported value>
6.11

$$$$

====

system: rodent lifetime carcinogenesis bioassay, tumor incidence TD50; test: carcinogenic potency in animals, long-term in vivo studies, CPDB compilation (AID 1745844); settings: rat; strain Charles River CD (Sprague-Dawley); males; inhaled; site: nasal cavity; lesion: malignant tumor; dosed 51 weeks; study length 104 weeks
Reported endpoint: TD50

>  <Compound string>
ClCC=CCCl

>  <Reported value>
0.169 mg/kg/day

$$$$

====

system: rodent lifetime carcinogenesis bioassay, tumor incidence TD50; assay: carcinogenic potency in animals, long-term in vivo studies, CPDB compilation (AID 1745844); details: mouse; strain Charles River CD1; females; in feed; site: lung; lesion: alveolar/bronchiolar adenoma; dosed 104 weeks; study length 104 weeks
Active and inactive are the calls of the source. The rule behind the calls is not given here.
Reported endpoint: TD50

>  <Compound string>
CN[C@H]1CC[C@@H](c2ccc(Cl)c(Cl)c2)c2ccccc21

>  <Target under test>
rodent lifetime carcinogenesis bioassay, tumor incidence TD50

>  <Reported value>
247 mg/kg/day (inactive)

$$$$

====

system: rodent lifetime carcinogenesis bioassay, tumor incidence TD50; assay: carcinogenic potency in animals, long-term in vivo studies, CPDB compilation (AID 1745844); conditions: rat; strain Fischer 344; females; in feed; site: liver; lesion: hepatocellular carcinoma; dosed 13 weeks; study length 13 weeks

>  <Compound string>
Nc1cc(S(=O)(=O)O)cc2cc(S(=O)(=O)O)c(N=Nc3ccc(-c4ccc(N=Nc5c(S(=O)(=O)O)cc6cc(S(=O)(=O)O)cc(N)c6c5O)cc4)cc3)c(O)c12

>  <TD50 [mg/kg/day]>
5.97

$$$$

====

test system: rodent lifetime carcinogenesis bioassay, tumor incidence TD50; assay: carcinogenic potency in animals, long-term in vivo studies, CPDB compilation (AID 1745844); details: mouse; strain B6C3F1; females; inhaled; site: lung; lesion: alveolar/bronchiolar adenoma; dosed 130 weeks; study length 130 weeks
Reported endpoint: TD50

>  <Compound string>
O=[O+][O-]

>  <Reported endpoint>
TD50

>  <Reported value>
1.78 mg/kg/day

$$$$

====

test system: rodent lifetime carcinogenesis bioassay, tumor incidence TD50; assay: carcinogenic potency in animals, long-term in vivo studies, CPDB compilation (AID 1745844); conditions: monkey; strain Cynomolgus [Macaca fascicularis]; both sexes; by gavage; site: liver; lesion: hepatocellular carcinoma; dosed 485 weeks; study length 485 weeks
Reported endpoint: TD50

>  <Compound string>
Cn1c(N)nc2c3cccnc3ccc21

>  <Reported value>
0.374 mg/kg/day

$$$$

====

system: rodent lifetime carcinogenesis bioassay, tumor incidence TD50; test: carcinogenic potency in animals, long-term in vivo studies, CPDB compilation (AID 1745844); details: mouse; strain B6C3F1; females; in feed; site: lung; lesion: alveolar/bronchiolar adenoma + alveolar/bronchiolar carcinoma; dosed 103 weeks; study length 105 weeks
# key: entry, value: TD50

>  <Compound string>
Cc1cc(N=Nc2c(O)ccc3ccccc23)c(S(=O)(=O)O)cc1Cl

>  <TD50 [mg/kg/day]>
9200

$$$$
>  <Compound string>
N=C1C=CC(=C(c2ccc(N)cc2)c2ccc(N)cc2)C=C1

>  <TD50 [mg/kg/day]>
302

$$$$
>  <Compound string>
CC

>  <TD50 [mg/kg/day]>
24700

$$$$
>  <Compound string>
OB(O)O

>  <TD50 [mg/kg/day]>
4190

$$$$
>  <Compound string>
OCCO

>  <TD50 [mg/kg/day]>
11300

$$$$
>  <Compound string>
Nc1cccc2c(N)cccc12

>  <TD50 [mg/kg/day]>
331

$$$$
>  <Compound string>
COC(=O)c1ccc(C(=O)OC)cc1

>  <TD50 [mg/kg/day]>
44000

$$$$
>  <Compound string>
Oc1ccc2ccccc2c1N=Nc1ccccc1

>  <TD50 [mg/kg/day]>
3030

$$$$
>  <Compound string>
CCCOC(=O)c1cc(O)c(O)c(O)c1

>  <TD50 [mg/kg/day]>
44300

$$$$

====

test system: rodent lifetime carcinogenesis bioassay, tumor incidence TD50; assay: carcinogenic potency in animals, long-term in vivo studies, CPDB compilation (AID 1745844); details: rat; strain Sprague-Dawley; males; in feed; site: urinary bladder; lesion: several types; types named in the paper; dosed 112 weeks; study length 112 weeks

>  <Compound string>
S=C(SN1CCOCC1)N1CCOCC1

>  <TD50>
130 mg/kg/day

$$$$

====

system: rodent lifetime carcinogenesis bioassay, tumor incidence TD50; assay: carcinogenic potency in animals, long-term in vivo studies, CPDB compilation (AID 1745844); conditions: rat; strain Charles River CD (Sprague-Dawley); males; in feed; site: any site (literature study); lesion: several types; types named in the paper; dosed 36 weeks; study length 52 weeks

>  <Compound>
C=CC(OC(C)=O)c1ccc2c(c1)OCO2 (stereo unspecified)

>  <Target under test>
rodent lifetime carcinogenesis bioassay, tumor incidence TD50

>  <TD50 / mg/kg/day>
21.1

$$$$

====

test system: rodent lifetime carcinogenesis bioassay, tumor incidence TD50; assay: carcinogenic potency in animals, long-term in vivo studies, CPDB compilation (AID 1745844); conditions: rat; strain Sprague-Dawley; males; by gavage; site: kidney; lesion: nephroblastoma; dosed 52 weeks; study length 127 weeks
Reported endpoint: TD50 (mg/kg/day)

>  <Compound string>
C=CCl

>  <Reported value>
102

$$$$

====

system: rodent lifetime carcinogenesis bioassay, tumor incidence TD50; assay: carcinogenic potency in animals, long-term in vivo studies, CPDB compilation (AID 1745844); conditions: rat; strain Sprague-Dawley; males; i.p.; site: all sites; lesion: lymphocytic leukemia; dosed 32 weeks; study length 79 weeks
Reported endpoint: TD50

>  <Compound string>
S=P(N1CC1)(N1CC1)N1CC1

>  <Reported endpoint>
TD50

>  <Reported value>
0.374 mg/kg/day

$$$$

====

test system: rodent lifetime carcinogenesis bioassay, tumor incidence TD50; assay: carcinogenic potency in animals, long-term in vivo studies, CPDB compilation (AID 1745844); conditions: rat; strain Fischer 344; males; by gavage; site: forestomach; lesion: squamous-cell papilloma; dosed 103 weeks; study length 104 weeks
# key: entry, value: TD50
Reported endpoint: TD50

>  <Compound>
[Cl][Hg][Cl]

>  <Reported value>
3.12 mg/kg/day

$$$$
>  <Compound>
c1cc(OCC2CO2)cc(OCC2CO2)c1 (configuration not stated)

>  <Reported value>
8.16 mg/kg/day

$$$$

Measured values drawn from PubChem BioAssay AID1745844 for this set.
